- testSystem: T1, human IL-2 (human, UniProt P60568 21-153)
- T1 construct: SPR used Reprokine human IL-2; the result sentences say only hIL-2 or labeled human IL-2, so the same molecule is used here; also called hIL-2; recombinant human IL-2
- T1 sequence (P60568 21-153 limits assumed): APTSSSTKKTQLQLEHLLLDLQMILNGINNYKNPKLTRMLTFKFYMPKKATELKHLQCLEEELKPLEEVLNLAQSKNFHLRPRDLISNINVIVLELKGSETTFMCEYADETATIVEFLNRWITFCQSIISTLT
- experimentDescription: yeast surface display flow cytometry, 0.1 nM hIL-2, MFI normalized to expression

binder	binding result
clone 4 (17.023) scFv, yeast surface display clone (scFv) scFv: EIQLQQSGPELRRPGSSVKLSCKASGYNITDYLIHWVRHRPEHGLEWIGWIDPEDGETRYAQKFQSKATLTADTSSNAAYMQLSSLTPEDTATYFCARQLDSTYIYPFAYWGQGTLVTVSSGGGGSGGGGSGGGGSDIVMTQSPFSLAVSEGEMVTINCKSSQSLLRSGNQKNYLAWYQQKPGQSPKLLIYYASTGQSGVPDRFIGSGSGTDFTLTISDVQAEDLADYYCLQHYITPPTFGAGTKLELK	binds
clone 1 (17.021) scFv, yeast surface display clone (scFv) scFv: EIQLQQSGPELRRPGSSVKLSCKASGYNITDNLIHWVRHRPEHGLEWIGWIDPEDGETRYAQKFQSKATLTADTSSNAAYMQLSSLTPEDTATYFCARSLDSTYIYPFAYWGQGTLVTVSSGGGGSGGGGSGGGGSDIVMTQSPFSLAVSEGEMVTINCKSSQSLLRSGNQKNYLAWYQQKPGQSPKLLIYYASTGQSGVPDRFIGSGSGTDFTLTISDVQAEDLADYYCLQHYQSPPTFGAGTKLELK	binds
clone 2 (17.022) scFv, yeast surface display clone (scFv) scFv: EIQLQQSGPELRRPGSSVKLSCKASGYNITDYLIHWVRHRPEHGLEWIGWIDPEDGETRYAQKFQSKATLTADTSSNAAYMQLSSLTPEDTATYFCARSLDSTWIYPFAYWGQGTLVTVSSGGGGSGGGGSGGGGSDIVMTQSPFSLAVSEGEMVTINCKSSQSLLRSGNQKNYLAWYQQKPGQSPKLLIYYASTGQSGVPDRFIGSGSGTDFTLTISDVQAEDLADYYCLQHYITPPTFGAGTKLELK	binds
